Assay: Metrazole Induced Convulsion Inhibition Assay
Type: in vivo, Cox standard strain albino male mice
Conditions: Mus musculus; oral gavage, 1 h before metrazole 110 mg./kg. i.p.; active = total score of 6 or less (3 mice, range 0-12); read-out: Minimum active oral dose, Metrazole
measurement_name: minimal effective dose

Problem: Quick check: minimal effective dose of `Cc1ccc(-c2nnc(N3CCC4(CC3)OCCO4)nc2-c2ccc(C)cc2)cc1` ?
Solution: > 200 mg/kg

Problem: Quick check: minimal effective dose of `Cc1ccc(-c2nnc(N3CCC(C)CC3)nc2-c2ccc(C)cc2)cc1` ?
Solution: > 200 mg/kg

Problem: Quick check: minimal effective dose of `Cc1ccc(-c2nnc(N3CCC(OS(=O)(=O)c4ccc(C)cc4)CC3)nc2-c2ccc(C)cc2)cc1` ?
Solution: > 200 mg/kg

Problem: Quick check: minimal effective dose of `Cc1ccc(-c2ncc(N3CCC(O)CC3)nc2-c2ccc(C)cc2)cc1` ?
Solution: 12.5 mg/kg
